Tested on: human SMAD7 mRNA
Experiment: Antisense inhibition of human SMAD7 mRNA expression in Hep3B cells by 5-10-5 MOE gapmers, single concentration, electroporation, RT-PCR (Example 1, Study 1 and 2)
Type: cell-based
Settings: electroporation with 15,000 nM antisense oligonucleotide (Study 2), 5-10-5 MOE gapmers targeting SEQ ID NO: 1 and 2
Strand notation (5' to 3'): a small letter for the sugar, then the base; units joined by * are phosphorothioate-linked, units joined directly phosphodiester-linked; [ ] holds rarer units or linkages, { } end groups; capitals alone tell only the bases. e = 2'-O-(2-methoxyethyl) (MOE); [5mC] = 5-methylcytosine; d = 2'-deoxy (DNA)
Please mark fulfilled if the recorded % Inhibition of SMAD7 mRNA is equal to or greater than 30%, and not fulfilled if it falls below.

Answered cases to consult:
substance="771441 (e[5mC]*eG*eA*eG*eG*dG*d[5mC]*dG*dG*d[5mC]*dT*dG*d[5mC]*dG*d[5mC]*eA*eG*eG*e[5mC]*eT; antisense) [compound 771441]" test_system="human SMAD7 mRNA" label=fulfilled
substance="771952 (antisense eT*e[5mC]*eT*eT*e[5mC]*dT*d[5mC]*dT*dG*d[5mC]*dA*dG*dA*dG*d[5mC]*eA*e[5mC]*eA*eG*eA) [compound 771952]" test_system="human SMAD7 mRNA" label="not fulfilled"

Ask | Is reported % Inhibition of SMAD7 mRNA greater than or equal to 30% here: 771752 (antisense eA*eA*eT*eG*eT*d[5mC]*d[5mC]*d[5mC]*dT*dG*dT*dG*dG*dG*dT*eT*eT*e[5mC]*e[5mC]*eA) [compound 771752]
Reply | not fulfilled

Ask | Is reported % Inhibition of SMAD7 mRNA greater than or equal to 30% here: 771880 (antisense eT*e[5mC]*e[5mC]*e[5mC]*eT*dG*dG*dT*dT*dT*dT*dG*d[5mC]*dA*dG*eG*eT*eG*eG*eT) [compound 771880]
Reply | fulfilled

---

Tested on: human SMAD7 mRNA
Test: Antisense inhibition of human SMAD7 mRNA expression in Hep3B cells by 3-10-3 cEt gapmers, 10,000 nM, electroporation (Example 2)
Type: cell-based
Conditions: SMAD7 mRNA, Hep3B cells, 10,000 nM antisense oligonucleotide, electroporation, approximately 24 hours, primer probe set RTS5062, relative to untreated control cells
Strand notation (5' to 3'): a small letter for the sugar, then the base; units joined by * are phosphorothioate-linked, units joined directly phosphodiester-linked; [ ] holds rarer units or linkages, { } end groups; capitals alone tell only the bases. k = constrained ethyl (cEt); [5mC] = 5-methylcytosine; d = 2'-deoxy (DNA)
recorded.metric: % Inhibition (%)
Give your result in % as a bare value.

# annotated cases, reported % Inhibition shown
substance="829771 (antisense kG*k[5mC]*kA*dG*dT*d[5mC]*d[5mC]*dA*dG*dG*d[5mC]*dG*dG*k[5mC]*k[5mC]*kG) [compound 829771]" test_system="human SMAD7 mRNA" recorded_value=22
substance="829765 (antisense kG*k[5mC]*k[5mC]*dG*d[5mC]*dT*d[5mC]*d[5mC]*dT*dT*d[5mC]*dA*dG*kT*kT*kT) [compound 829765]" test_system="human SMAD7 mRNA" recorded_value=28
substance="772611 (kT*k[5mC]*k[5mC]*dG*dA*dG*dG*d[5mC]*dA*dA*dA*dA*dG*k[5mC]*k[5mC]*kA; antisense) [compound 772611]" test_system="human SMAD7 mRNA" recorded_value=14
substance="772858 (kA*kG*kT*dG*dT*dT*d[5mC]*dA*dA*d[5mC]*dA*dA*dT*kG*k[5mC]*kT; antisense) [compound 772858]" test_system="human SMAD7 mRNA" recorded_value=62

Ask | Entry 801040 (antisense kG*kT*k[5mC]*dA*dT*dG*dA*dA*dA*dG*dA*dT*dT*k[5mC]*kT*kT) [compound 801040] : reported % Inhibition = ?
Reply | 72

Ask | Entry 829718 (antisense k[5mC]*k[5mC]*kA*dG*dT*d[5mC]*dT*d[5mC]*d[5mC]*d[5mC]*dG*dG*dA*kG*kG*k[5mC]) [compound 829718] : reported % Inhibition = ?
Reply | 15

---

Test system: human SMAD7 mRNA
Experiment: Dose-dependent inhibition of human SMAD7 mRNA expression in Hep3B cells (Example 3, Study 1 and 2)
Format: cell-based
Conditions: 740 nM, electroporation, approximately 16 hours, Study 2, relative to untreated control cells
Strand notation (5' to 3'): a small letter for the sugar, then the base; units joined by * are phosphorothioate-linked, units joined directly phosphodiester-linked; [ ] holds rarer units or linkages, { } end groups; capitals alone tell only the bases. k = constrained ethyl (cEt); [5mC] = 5-methylcytosine; d = 2'-deoxy (DNA)
recorded.metric: % inhibition of SMAD7 mRNA expression (%)
Give your result in % as a bare value.

substance="830122 (kG*kA*kG*dA*dA*dT*d[5mC]*dA*dA*dG*d[5mC]*d[5mC]*d[5mC]*kT*kG*kG; antisense) [compound 830122]" recorded_metric="% inhibition of SMAD7 mRNA expression" recorded_value=28
substance="830180 (antisense k[5mC]*kG*kT*dG*dT*dA*d[5mC]*d[5mC]*d[5mC]*dA*dG*d[5mC]*dT*kG*k[5mC]*k[5mC]) [compound 830180]" recorded_metric="% inhibition of SMAD7 mRNA expression" recorded_value=21

Kindly review the next substance as well.
Ask | Query the reported % inhibition of SMAD7 mRNA expression for human SMAD7 mRNA; item: 799412 (antisense kT*kT*k[5mC]*dT*dT*dA*d[5mC]*dA*d[5mC]*dA*dG*d[5mC]*dA*kG*k[5mC]*kG) [compound 799412]
Reply | 35

---

Assay: Organ weights after subcutaneous administration in CD-1 mice (Example 6)
Format: in vivo
Conditions: end of study, 50 mg/kg subcutaneously twice a week for 7 weeks
Strand notation (5' to 3'): a small letter for the sugar, then the base; units joined by * are phosphorothioate-linked, units joined directly phosphodiester-linked; [ ] holds rarer units or linkages, { } end groups; capitals alone tell only the bases. k = constrained ethyl (cEt); [5mC] = 5-methylcytosine; d = 2'-deoxy (DNA)
Here, each record is paired with measured Organ weights, Liver data.
Give your result in g as a bare value.

Ask | Entry 830121 (AGAATCAAGCCCTGGC; 3-10-3 cEt gapmer, further chemistry not given here) [compound 830121] : reported Organ weights, Liver = ?
Reply | 2.4

Ask | Entry 829994 (GGAGGCAGGGCCGCGA; 3-10-3 cEt gapmer, further chemistry not given here) [compound 829994] : reported Organ weights, Liver = ?
Reply | 2.6

Ask | Entry 799144 (antisense kT*kT*kG*dG*dG*dT*dT*dA*dT*dG*dA*d[5mC]*dG*kG*kA*k[5mC]) [compound 799144] : reported Organ weights, Liver = ?
Reply | 2.3

Ask | Entry 830025 (antisense TTTGTAAATCGAAAGC; 3-10-3 cEt gapmer, further chemistry not given here) [compound 830025] : reported Organ weights, Liver = ?
Reply | 2.2

Ask | Entry 790615 (CCAATGAGAATGCTTC; 3-10-3 cEt gapmer, further chemistry not given here) [compound 790615] : reported Organ weights, Liver = ?
Reply | 2.0

Ask | Entry 830027 (antisense kA*kA*k[5mC]*d[5mC]*dA*dT*dT*dT*dA*dT*d[5mC]*dT*dG*kG*kT*kG) [compound 830027] : reported Organ weights, Liver = ?
Reply | 2.6

Ask | Entry 798781 (CGTAAGATTCACAGCA; 3-10-3 cEt gapmer, further chemistry not given here) [compound 798781] : reported Organ weights, Liver = ?
Reply | 2.3

---

Test system: human SMAD7 mRNA
Experiment: Antisense inhibition of human SMAD7 mRNA expression in Hep3B cells by 3-10-3 cEt gapmers, 10,000 nM, electroporation (Example 2)
Assay type: cell-based
Conditions: SMAD7 mRNA, Hep3B cells, 10,000 nM antisense oligonucleotide, electroporation, approximately 24 hours, primer probe set RTS5062, relative to untreated control cells
Strand notation (5' to 3'): a small letter for the sugar, then the base; units joined by * are phosphorothioate-linked, units joined directly phosphodiester-linked; [ ] holds rarer units or linkages, { } end groups; capitals alone tell only the bases. k = constrained ethyl (cEt); [5mC] = 5-methylcytosine; d = 2'-deoxy (DNA)
Please mark True if the recorded % Inhibition is equal to or greater than 60%, and False if it falls below.

substance="829749 (antisense kT*k[5mC]*k[5mC]*dT*d[5mC]*dG*d[5mC]*d[5mC]*dG*d[5mC]*d[5mC]*dG*dG*kG*k[5mC]*kG) [compound 829749]" test_system="human SMAD7 mRNA" label=False
substance="790659 (kT*kG*k[5mC]*d[5mC]*dA*dG*dT*d[5mC]*dT*d[5mC]*dA*dA*dA*kT*kG*kG; antisense) [compound 790659]" test_system="human SMAD7 mRNA" label=False
substance="800109 (antisense kA*k[5mC]*kA*dG*d[5mC]*d[5mC]*dA*d[5mC]*dA*dA*dG*dT*d[5mC]*kA*k[5mC]*kA) [compound 800109]" test_system="human SMAD7 mRNA" label=True
substance="790469 (k[5mC]*kG*kG*dA*d[5mC]*dG*dA*dG*d[5mC]*dG*d[5mC]*dA*dG*kA*kT*k[5mC]; antisense) [compound 790469]" test_system="human SMAD7 mRNA" label=False
substance="772584 (kG*kA*kA*dG*dT*dT*dG*dG*dG*dA*dA*dT*d[5mC]*kT*kG*kA; antisense) [compound 772584]" test_system="human SMAD7 mRNA" label=False

Ask | Is reported % Inhibition greater than or equal to 60% here: 801051 (antisense kG*kT*kG*dT*dT*d[5mC]*dA*dA*d[5mC]*dA*dA*dT*dG*k[5mC]*kT*kT) [compound 801051]
Reply | True

Ask | Is reported % Inhibition greater than or equal to 60% here: 790612 (kT*kA*kA*dA*d[5mC]*d[5mC]*dT*dT*dT*dG*dT*dA*dG*kT*kT*kA; antisense) [compound 790612]
Reply | True

Ask | Is reported % Inhibition greater than or equal to 60% here: 772733 (kG*kG*kT*dG*dA*dT*dT*dG*d[5mC]*d[5mC]*dT*dT*dG*kA*kT*kA; antisense) [compound 772733]
Reply | False
